Data provenance is patent US12029748B2.

System: L. crispatus and E. coli
ASSAY COMMENT: Therapeutic Effect Protocol: L. crispatus / E. coli co-culture, ratio after 36 hours
Format: cell-based, Lactobacillus crispatus; E. coli
PROTOCOL CONDITIONS: nitrogen compound 0.10 wt/vol % with 1.0 wt/vol % α methyl-D glucoside (10:1); 36 hours anaerobic co-culture, 37° C.
Where a SMILES comes first, the peptide text is derived from it.
I'd appreciate it if you could supply Therapeutic Efficacy Results (Lactobacillus/E. coli) 0.10% values for the items below.
Just the number, please, no unit after it.

Determine from records and report Therapeutic Efficacy Results (Lactobacillus/E. coli) 0.10% for NC(=O)C[C@H](N)C(=O)O
1.12

Determine from records and report Therapeutic Efficacy Results (Lactobacillus/E. coli) 0.10% for CSCC[C@H](N)C(=O)N[C@@H](C)C(=O)O [Met-Ala] (H-Met-Ala-OH)
7.33

Determine from records and report Therapeutic Efficacy Results (Lactobacillus/E. coli) 0.10% for CC(=O)N[C@H]1C(O)O[C@H](CO)[C@@H](O)[C@@H]1O (some centres unmarked)
8.33

Determine from records and report Therapeutic Efficacy Results (Lactobacillus/E. coli) 0.10% for N[C@@H](CO)C(=O)O
393

Determine from records and report Therapeutic Efficacy Results (Lactobacillus/E. coli) 0.10% for N[C@@H](Cc1c[nH]c2ccccc12)C(=O)O
0.66

Determine from records and report Therapeutic Efficacy Results (Lactobacillus/E. coli) 0.10% for CC[C@H](C)[C@H](N)C(=O)O
1.51

Determine from records and report Therapeutic Efficacy Results (Lactobacillus/E. coli) 0.10% for C[C@H](N)C(=O)O
1.5

Determine from records and report Therapeutic Efficacy Results (Lactobacillus/E. coli) 0.10% for CC(C)[C@H](N)C(=O)O
1.34

Determine from records and report Therapeutic Efficacy Results (Lactobacillus/E. coli) 0.10% for N[C@@H](Cc1ccc(O)cc1)C(=O)O
2.72

Determine from records and report Therapeutic Efficacy Results (Lactobacillus/E. coli) 0.10% for C[C@H](NC(=O)CN)C(=O)O [Glycyl-Alanine] (H-Gly-Ala-OH)
0.803

Determine from records and report Therapeutic Efficacy Results (Lactobacillus/E. coli) 0.10% for N.O.O.O.O.O=P([O-])(O)O.[Na+] [Ammonium Sodium Phosphate]
0.25

Determine from records and report Therapeutic Efficacy Results (Lactobacillus/E. coli) 0.10% for NC(=O)NC1NC(=O)NC1=O (centres unmarked)
0.9

Determine from records and report Therapeutic Efficacy Results (Lactobacillus/E. coli) 0.10% for N[C@H](CO)C(=O)O
0.06

###

Tested on: L. crispatus and E. coli
ASSAY COMMENT: Therapeutic Effect Protocol: L. crispatus / E. coli co-culture, ratio after 36 hours
Assay type: cell-based, Lactobacillus crispatus; E. coli
PROTOCOL CONDITIONS: nitrogen compound 0.10 wt/vol % with 1.0 wt/vol % α methyl-D glucoside (10:1); 36 hours anaerobic co-culture, 37° C.
Where a SMILES comes first, the peptide text is derived from it.
MEASUREMENT KIND: Therapeutic Efficacy Results (Lactobacillus/E. coli) 0.10%
Just the number, please, no unit after it.

Determine from records and report Therapeutic Efficacy Results (Lactobacillus/E. coli) 0.10% for NCC(=O)N[C@@H](CCC(N)=O)C(=O)O.O [Gly-Gln] (H-Gly-Gln-OH)
8.57

Determine from records and report Therapeutic Efficacy Results (Lactobacillus/E. coli) 0.10% for NCCCC(=O)O
0.836

Determine from records and report Therapeutic Efficacy Results (Lactobacillus/E. coli) 0.10% for N=C(N)NCCC[C@@H](N)C(=O)O
0.35

Determine from records and report Therapeutic Efficacy Results (Lactobacillus/E. coli) 0.10% for N[C@@H](CC(=O)O)C(=O)O
1.36

Determine from records and report Therapeutic Efficacy Results (Lactobacillus/E. coli) 0.10% for c1cncnc1
245

Determine from records and report Therapeutic Efficacy Results (Lactobacillus/E. coli) 0.10% for NCC(=O)N[C@@H](CC(N)=O)C(=O)O [Gly-Asn] (H-Gly-Asn-OH)
108

Determine from records and report Therapeutic Efficacy Results (Lactobacillus/E. coli) 0.10% for CC(=O)N[C@H]1C(O)O[C@H](CO)[C@H](O)[C@@H]1O (some centres unmarked)
130

Determine from records and report Therapeutic Efficacy Results (Lactobacillus/E. coli) 0.10% for CC(O)C(N)=O (stereo not drawn) [DL Lactamide]
7.52
